assay: Induction of anti-CD3 antibodies-stimulated human T cell activation at 1 uM assessed fold increase in CD25 expression measured by ELISA assay; format: functional, T cell line
parameter: fold change (FC)

Use these answered entries as a reference point.
compound	parameter	reported_result
C[C@@H](c1cc2c(c(C(F)(F)F)c1)CN(c1cccc(C3(Cc4nncn4C)COC3)c1)C2=O)N1CC(F)C1	fold change (FC)	>=1.001
CC(Sc1nncn1C)c1cccc(NC(=O)c2ccc3ccccc3n2)c1 (stereo not drawn)	fold change (FC)	<=0.6
Cc1ccc(C(=O)Nc2cccc([C@H](C)Sc3nncn3C)c2)nc1C(F)(F)F	fold change (FC)	0.601
Cn1cnnc1CC1(c2cccc(N3Cc4c(cc(CN5CC(F)C5(C)C)cc4C(F)(F)F)C3=O)c2)COC1 (stereo not drawn)	fold change (FC)	>=1.001
C[C@@H]1[C@@H](c2nncn2C)[C@H]1c1cccc(N2Cc3c(cccc3C(F)(F)F)C2=O)c1	fold change (FC)	>=1.001

Task: Tell me the measured fold change (FC) of "Cn1cnnc1CC1(c2cccc(N3Cc4c(cc(CN5CC[C@H](F)C5)cc4C4CC4)C3=O)c2)COC1" , please.
Result: >=1.001

Task: Suppose we examine the compound "CC(=O)N1CCN(c2ccc3cnc(C(=O)Nc4cccc([C@H](C)Cc5nncn5C)c4)cc3c2)CC1.O=C(O)C(F)(F)F" ; what fold change (FC) value has been reported?
Result: 0.601

Task: Looking for the measured fold change (FC) of "C[C@H](Cc1nncn1C)c1cccc(NC(=O)c2cc(C(C)(C)O)cc(C(F)(F)F)n2)c1" , can you help?
Result: 0.801

----------
assay: Induction of anti-CD3 antibodies-stimulated human CD8+ T cell activation in immunocompetent mouse assessed fold increase in CD25 expression at 135 mg/kg, po administered twice a day; type: functional
Measured fold change (FC), listed per entry for reference.
Output spec: single numeric token, no unit.

Sample answers from the record:
molecule	reported_result
C[C@@H](c1cc2c(c(C(F)(F)F)c1)CN(c1cccc(C3([C@@H](F)c4nncn4C)COC3)c1)C2=O)N1CCC2(CC2)C1 (single isomer, unassigned)	1.51
Cn1cnnc1CC1(c2cccc(N3Cc4c(cc(CN5CCC6(CC6)C5)cc4C(F)(F)F)C3=O)c2)COC1	1
Cc1cc(C(=O)Nc2cccc([C@H](C)Cc3nncn3C)c2)nc(C2CC2)n1	1

Task: Endpoint output: fold change (FC) of "Cn1cnnc1C(F)(F)[C@](C)(F)c1cccc(N2Cc3c(cc(CN4CC[C@H](F)C4)cc3C(F)(F)F)C2=O)c1" . Value?
Result: 1

----------
assay: Induction of anti-CD3 antibodies-stimulated human T cell activation at 1 uM assessed fold increase in IL-2 secretion measured by ELISA assay; assay type: functional, T cell line
Below is a list of entries, each paired with its recorded fold change (FC) value.
Lab note: record just the number, no unit beside it.

Examples with their reported fold change (FC) follow.
molecule	fold change (FC)
Cn1cnnc1C(F)(F)[C@](C)(F)c1cccc(N2Cc3c(cc(CN4CC[C@@H](S(C)(=O)=O)C4)cc3C(F)(F)F)C2=O)c1	0.151
Cn1cnnc1CC1(c2cccc(NC(=O)c3cc(CN4CC[C@H](O)C4)nc(C4CC4)n3)c2)COC1	0.051
COc1cc(C(=O)Nc2cccc([C@H](C)Sc3nncn3C)c2)nc(C(F)(F)F)c1	0.051

Task: Requested field: fold change (FC). Item: "C[C@H](Cc1nncn1C)c1cccc(N2Cc3c(cc([C@@H](C)N4CC[C@H](F)C4)cc3C(F)(F)F)C2=O)c1"
Result: 0.151

Task: Form field: reported fold change (FC) of "C[C@H](Sc1nncn1C)c1cccc(NC(=O)c2cc3cc(OCc4ccn[nH]4)ccc3cn2)c1"
Result: 0.051

Task: # input molecule: "CCOc1cc(NC(=O)c2cc(C)nc(C3CC3)n2)cc(C2(Cc3nncn3C)COC2)c1" ; wanted: its fold change (FC)
Result: 0.051

Task: Given "Cn1cnnc1CC1(c2cccc(N3Cc4c(cc(C5=CCOC5)cc4C(F)(F)F)C3=O)c2)COC1" , state its recorded fold change (FC).
Result: 0.101

Task: What measured fold change (FC) goes with "C[C@H](c1cc2c(c(C(F)(F)F)c1)CN(c1cccc(C3(Cc4nncn4C)COC3)c1)C2=O)N1CCC(F)(F)C1" ?
Result: 0.151

Task: For "CN1CCN(c2cc3c(c(C(F)(F)F)c2)CN(c2cccc(C4(Cc5nncn5C)COC4)c2)C3=O)C(=O)C1" , what is its reported fold change (FC)?
Result: 0.051

Task: Quick one: fold change (FC) for Cc1c[nH]nc1C[C@H](C)c1cccc(N2Cc3c(cccc3C(F)(F)F)C2=O)c1 (single isomer, unassigned) ?
Result: 0.101

Task: Fill in the blank: the reported fold change (FC) of "CCOc1cc([C@H](C)Cc2nncn2C)cc(N2Cc3c(cccc3C(F)(F)F)C2=O)n1" is ____.
Result: 0.151

Task: Reported fold change (FC), molecule "CNS(=O)(=O)c1cc(C(=O)Nc2cccc([C@H](C)Cc3nncn3C)c2)nc(C(F)(F)F)c1" : ____
Result: 0.151

Task: What does the record list as fold change (FC) for "COc1cccc(C(=O)Nc2cccc([C@H](C)Sc3nncn3C)c2)n1" ?
Result: 0.101

Task: Returns the measured fold change (FC) for the input molecule. Input: "Cn1cnnc1C(F)(F)[C@](C)(F)c1cccc(N2Cc3c(cc(CN4CCC(F)(F)C4)cc3C(F)(F)F)C2=O)c1"
Result: 0.101

Task: Item under review: "C[C@H](Cc1nncn1C)c1cccc(N2Cc3c(cc(N[C@H]4CCNC4)cc3C(F)(F)F)C2=O)c1" . Reported fold change (FC)?
Result: 0.101

Task: Any idea what its fold change (FC) is? The molecule is "Cc1conc1C[C@@H](C)c1cccc(NC(=O)c2ccnc(C(F)(F)F)n2)c1"
Result: 0.051
